Documented TGI across a set of compounds
- System: DU-145 prostate
- protocol-text: NCI tumour cell line growth inhibition, 48 h
endpoint: TGI

[[record]]
compound_smiles = "c1ccc(CCCN2C3CCC2CN(CCOC(c2ccccc2)c2ccccc2)C3)cc1"
endpoint = "TGI"
endpoint_value = "32 µM"

[[record]]
compound_smiles = "Cc1cccc(-c2cc(=O)c3cccnc3[nH]2)c1"
endpoint = "TGI"
endpoint_value = "> 100 µM"

[[record]]
compound_smiles = "COC(=O)[C@H](Cc1ccccc1)NC(=O)N(CCN(CCC#N)C(=O)N[C@H](C(=O)OC)C(C)C)c1ccccc1"
endpoint = "TGI"
endpoint_value = "> 100 µM"

[[record]]
compound_smiles = "O=C(Nc1ccc(Nc2ccc3c(c2)C(=O)c2ccccc2C3=O)c2c1C(=O)c1ccccc1C2=O)c1ccccc1"
endpoint = "TGI"
endpoint_value = "> 100 µM"

[[record]]
compound_smiles = "COC(=O)/C(=C(/C)c1ccco1)P(=O)(OC)OC"
endpoint = "TGI"
endpoint_value = "> 100 µM"

[[record]]
compound_smiles = "CCOC(=O)c1ccc(-c2onc(C)c2Br)[nH]1"
endpoint = "TGI"
endpoint_value = "> 100 µM"

[[record]]
compound_smiles = "O=C(CN1CCCCC1)c1ccc2[nH]c(=O)oc2c1"
endpoint = "TGI"
endpoint_value = "> 100 µM"

[[record]]
compound_smiles = "N#CSc1c[nH]c2ccc(/C=C/C(=O)/C=C(O)/C=C/c3ccc4[nH]cc(SC#N)c4c3)cc12"
endpoint = "TGI"
endpoint_value = "4.56 µM"

[[record]]
compound_smiles = "COC(=O)C12CCCN1CCC2"
endpoint = "TGI"
endpoint_value = "> 100 µM"

[[record]]
compound_smiles = "CN(C(=O)Cc1cc(Cl)c(Cl)cc1NC(=O)CCCN)[C@H]1CCCC[C@@H]1N1CCCC1"
endpoint = "TGI"
endpoint_value = "> 100 µM"

[[record]]
compound_smiles = "O=C(Nc1ccc(Cl)cc1)c1cc(S(=O)(=O)Nc2nc3ncccc3[nH]2)c(SSc2cc(Cl)c(C(=O)Nc3ccc(Cl)cc3)cc2S(=O)(=O)Nc2nc3ncccc3[nH]2)cc1Cl"
endpoint = "TGI"
endpoint_value = "> 100 µM"

[[record]]
compound_smiles = "C/C(=C1\\C(=O)Nc2ccccc21)c1cccc(/C(C)=C2/C(=O)Nc3ccccc32)n1"
endpoint = "TGI"
endpoint_value = "> 100 µM"

[[record]]
compound_smiles = "Cc1ccc(N=NC(=Nc2ccc(F)cc2)c2ccc(N(CCC#N)CCC#N)cc2)cc1"
endpoint = "TGI"
endpoint_value = "> 100 µM"

[[record]]
compound_smiles = "Nc1nc(N)c2cc(-c3cc4ccccc4[nH]3)ccc2n1"
endpoint = "TGI"
endpoint_value = "58.8 µM"

[[record]]
compound_smiles = "O=c1[nH]c(=O)n(Cc2ccc(C34CC5CC(CC(C5)C3)C4)c(O)c2)cc1F"
endpoint = "TGI"
endpoint_value = "32.4 µM"

[[record]]
compound_smiles = "Fc1ccc(F)c(C=NC23CC4CC(CC(C4)C2)C3)c1"
endpoint = "TGI"
endpoint_value = "> 10 µM"


----------
- Test system: MALME-3M melanoma
- protocol-text: NCI tumour cell line growth inhibition, 48 h; in the data active = GI50 below about 0.43 µM; inactive = the rest
Outcome codes: true (active), false (inactive)

[[record]]
compound_smiles = "CCCCCOC(=O)c1c(C)[nH]c(/C=C2\\N=C(c3ccc[nH]3)C=C2OC)c1C"
label_class = "true"

[[record]]
compound_smiles = "c1ccc2[nH]c(-c3ccc(Nc4nc(N5CCCC5)nc5[nH]ncc45)cc3)nc2c1"
label_class = "true"

[[record]]
compound_smiles = "CC[O-].CC[O-].[O-]c1ccccc1C=NC12CC3CC(CC(C3)C1)C2.[O-]c1ccccc1C=NC12CC3CC(CC(C3)C1)C2.[Ti+4]"
label_class = "false"

[[record]]
compound_smiles = "COc1cc2c(cc1OCCCCCOc1ccc(-c3nc4ccccc4s3)cc1)N=C[C@@H]1CCCN1C2=O"
label_class = "false"


----------
- System: HOP-92 NSCLC
- protocol-text: NCI tumour cell line growth inhibition, 48 h
Non-standard residues stand in square brackets, D forms with d. Residues, ends and D or L forms follow the SMILES beside them. ξ: configuration not given here. Pen = CC(C)(S)[C@H](N)C(=O)O; ξL = CC(C)CC(N)C(=O)O
Documented TGI across a set of compounds
endpoint: TGI

[[record]]
compound = "CC[O-].CC[O-].[O-]c1ccccc1C=NC12CC3CC(CC(C3)C1)C2.[O-]c1ccccc1C=NC12CC3CC(CC(C3)C1)C2.[Ti+4]"
endpoint_value = "> 100 µM"

[[record]]
compound = "COc1ccc(C(O)C(c2ccc(OCc3ccccc3)cc2)c2ccc(OCc3ccccc3)cc2)cc1 (configuration not stated)"
endpoint_value = "> 100 µM"

[[record]]
compound = "O=S(=O)(O)c1cc(O)c(N=NC2S(=O)(=O)OCCOS2(=O)=O)c2ccccc12"
endpoint_value = "> 100 µM"

[[record]]
compound = "CN(C)C(=C1C(Br)=C(Br)C(Br)=C1Br)N(C)C"
endpoint_value = "> 100 µM"

[[record]]
compound = "CSCC[C@H](NC(=O)C(CC(C)C)NC(=O)[C@H](Cc1c[nH]cn1)NC(=O)CNC(=O)[C@@H](NC(=O)[C@@H](C)NC(=O)[C@H](Cc1c[nH]c2ccccc12)NC(=O)[C@H](CCC(N)=O)NC(=O)[C@@H](N)CC(N)=O)C(C)(C)SC)C(N)=O (some centres not stated) (H-NQW[dA][Pen](Me)GH[ξL]M-NH2)"
endpoint_value = "> 100 µM"

[[record]]
compound = "CCN1CC2=C(OC(N)=C(C#N)C2c2ccc(Cl)cc2)/C(=C/c2ccc(Cl)cc2)C1 (configuration not stated)"
endpoint_value = "58.6 µM"

[[record]]
compound = "Nc1nc(N)c2cc(-c3cc4ccccc4[nH]3)ccc2n1"
endpoint_value = "35.2 µM"

[[record]]
compound = "CC(C)N1CCOC(c2ccc(O)c(O)c2)C1 (configuration not stated)"
endpoint_value = "> 100 µM"

[[record]]
compound = "CCCCOc1ccc(/C=C/C2=[N+](CCO)CCO2)cc1"
endpoint_value = "> 100 µM"

[[record]]
compound = "O=C1C(NS(=O)(=O)c2ccccc2)=C(n2ccnc2)C(=O)c2ccccc21"
endpoint_value = "> 100 µM"

[[record]]
compound = "CC(=O)N1N=C(c2ccccc2)NC(=O)C1c1cc(C)c(O)c(C)c1 (configuration not stated)"
endpoint_value = "38.8 µM"

[[record]]
compound = "COc1cc(OC)c(OC)cc1/C=C/c1ccccn1"
endpoint_value = "> 10 µM"

[[record]]
compound = "O=C(Nc1ccccc1/C=C/c1n[nH]c2ccccc12)c1ccccc1"
endpoint_value = "5.25 µM"

[[record]]
compound = "CCOC(=O)c1nc(SC)sc1NC(=O)c1ccc(OC)cc1"
endpoint_value = "> 100 µM"

[[record]]
compound = "CCOP(=O)(OCC)/C(C#N)=C/c1nc[nH]c1C"
endpoint_value = "> 100 µM"

[[record]]
compound = "c1ccc(C/C(=N\\Nc2nc3ccccc3[nH]2)c2ccccn2)cc1"
endpoint_value = "0.653 µM"

[[record]]
compound = "CN(c1ccccc1)c1nc(=[N+](C)C)ss1"
endpoint_value = "> 100 µM"

